Measured IC50 of individual entries
- Study system: hER-β (Homo sapiens, UniProt Q92731)
- Construct: purchased Panvera
- Sequence (Q92731 whole entry): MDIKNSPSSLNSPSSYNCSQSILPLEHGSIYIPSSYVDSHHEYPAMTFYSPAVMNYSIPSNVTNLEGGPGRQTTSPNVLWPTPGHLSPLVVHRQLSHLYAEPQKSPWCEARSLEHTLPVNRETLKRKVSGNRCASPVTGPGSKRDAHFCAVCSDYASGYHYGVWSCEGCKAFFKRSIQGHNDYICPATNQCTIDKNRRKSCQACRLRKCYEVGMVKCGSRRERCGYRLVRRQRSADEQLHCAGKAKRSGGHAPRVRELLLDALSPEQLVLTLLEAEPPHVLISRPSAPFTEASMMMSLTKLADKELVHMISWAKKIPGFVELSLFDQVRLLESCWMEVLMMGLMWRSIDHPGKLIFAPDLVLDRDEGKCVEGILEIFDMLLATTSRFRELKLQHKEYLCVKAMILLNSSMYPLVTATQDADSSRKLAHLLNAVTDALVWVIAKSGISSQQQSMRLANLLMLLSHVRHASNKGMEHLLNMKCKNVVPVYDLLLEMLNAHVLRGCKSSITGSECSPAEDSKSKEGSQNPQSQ
- Assay name: Estrogen Receptor β Fluorescence Polarization Assay (binding of Fluormone ES2)
- Experimental context: fluorescence polarization binding, Fluormone ES2; number in brackets = No. of determinations; NA = no detected activity at test concentration; read-out: Estrogen Receptor β in μM (No.)
Please state the figure in µM; there is no need to write the unit.

In the examples that follow, each entry is paired with its recorded IC50.
COc1ccc2c(c1)OCCC1=C2C(c2ccc(OCCN3CCCCC3)cc2)Oc2cc(O)ccc21 (single isomer, unassigned)    0.189
Oc1ccc2c(c1)O[C@H](c1ccc(OCCN3CCCCC3)cc1)C1=C2COc2cc(O)ccc21 (stereo in doubt)    0.15

Fill in IC50 for record CCN(CC)CCOc1ccc(C2Oc3cc(O)ccc3C3=C2c2ccc(O)cc2OC3)cc1 (stereo not shown) 0.099

Give IC50 for the following molecule: CN(C)c1ccc(C2Oc3cc(O)ccc3C3=C2c2ccc(O)cc2OC3)cc1 (stereo not shown) 0.02

----------
- Study system: human estrogen receptor α (Homo sapiens, UniProt P03372)
- Construct: purchased Panvera
- Sequence (P03372 whole entry): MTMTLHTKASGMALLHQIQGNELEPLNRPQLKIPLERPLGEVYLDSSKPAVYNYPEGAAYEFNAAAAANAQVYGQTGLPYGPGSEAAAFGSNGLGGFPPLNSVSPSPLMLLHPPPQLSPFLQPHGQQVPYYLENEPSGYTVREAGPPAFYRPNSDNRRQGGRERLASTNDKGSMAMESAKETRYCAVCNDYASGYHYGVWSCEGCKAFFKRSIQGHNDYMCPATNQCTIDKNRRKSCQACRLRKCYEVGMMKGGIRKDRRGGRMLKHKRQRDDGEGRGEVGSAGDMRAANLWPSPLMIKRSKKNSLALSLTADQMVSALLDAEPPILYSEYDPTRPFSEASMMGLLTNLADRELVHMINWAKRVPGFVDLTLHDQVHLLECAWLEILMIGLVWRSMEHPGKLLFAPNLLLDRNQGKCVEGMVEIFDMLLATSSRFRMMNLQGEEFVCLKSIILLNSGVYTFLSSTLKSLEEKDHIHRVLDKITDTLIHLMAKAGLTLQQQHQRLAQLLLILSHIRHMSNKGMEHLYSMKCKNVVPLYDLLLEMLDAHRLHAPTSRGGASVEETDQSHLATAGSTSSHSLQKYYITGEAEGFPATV
- Assay name: Estrogen Receptor α Flash Plate Assay (binding of radiolabeled estrogen)
- Experimental context: flash plate binding, 0.5 nM radiolabeled estrogen; number in brackets = No. of determinations; NA = no detected activity at test concentration; read-out: Estrogen Receptor α in μM (No.)
Readout name: IC50 (µM)
Numbers only; they are read as µM.

Please review the entries below; each comes with its answer.
CC1(c2ccc(OCCN3CCCCC3)cc2)Oc2cc(O)ccc2C2=C1c1ccc(O)cc1OC2 (stereo not shown)    0.004
CC(C)(C)C(=O)Oc1ccc2c(c1)OCC1=C2C(c2ccc(OCCN3CCCCC3)cc2)Oc2ccccc21 (single isomer, unassigned) [Compound 171]    0.14
O=c1oc2cc(O)ccc2c2c1-c1ccc(O)cc1OC2    0.505
CC(C)N(CCOc1ccc(C2Oc3cc(O)ccc3C3=C2c2ccc(O)cc2OCC3)cc1)C(C)C (single isomer, unassigned) [Compound 167]    0.007

Tell me its IC50 given CC(C)(C)C(=O)Oc1ccc2c(c1)OC(c1ccc(OCCN3CCCCC3)cc1)C1=C2COc2cc(OC(=O)C(C)(C)C)ccc21 (stereo not shown) [Compound 22] as the entry. 3.45

Write down IC50 measured for item Oc1ccc2c(c1)OC(c1ccc(OCCN3CCCCC3)cc1)C1=C2CCOc2cc(O)ccc21 (single isomer, unassigned) 0.0039

Annotate the compound Oc1ccc2c(c1)OC(c1ccc(OCCN3CCCCC3)cc1)C1=C2CCOc2ccccc21 (single isomer, unassigned) [Compound 131] with its measured IC50. 0.061

Fill in reported IC50 for this entry: COc1ccc2c(c1)OCCC1=C2C(c2ccc(OCCN3CCCCC3)cc2)Oc2cc(O)ccc21 (single isomer, unassigned) [Compound 301] 0.0041

Name the recorded IC50 of the item Oc1ccc2c(c1)OC(c1ccc(OCCN3CCCCCC3)cc1)C1=C2CCOc2ccccc21 (single isomer, unassigned) [Compound 155] in your answer. 0.088
